- protocolNotes: HILIC, Waters ACQUITY UPLC BEH Amide, 100 × 2.1 mm, 1.7 µm; A: water + 0.125% formic acid + 10 mM ammonium formate; B: 5% water + 95% acetonitrile + 0.125% formic acid + 10 mM ammonium formate; gradient (min/%B) 0/100 2/100 7.7/70 9.5/40 10.25/30 12.75/100 17/100
- conditionInfo: stereoisomer not certain
Field 'label' (enum: T / F). Set to T when LC retention time is strictly under 5 min; else F.

Reference set (3 entries):
Here's an entry: Nc1nc2c(ncn2C2CC(OP(=O)(O)O)C(CO)O2)c(=O)[nH]1 (configuration not stated) [2'-Deoxyguanosine 3'-monophosphate] . Is its LC retention time below 5 min? F

Quick check: LC retention time of Oc1ccc(C2CNCCc3c2cc(O)c(O)c3Cl)cc1 (configuration not stated) under 5 min? F

Answer whether the molecule CN(C)CCc1c[nH]c2ccc(CC3COC(=O)N3)cc12 (configuration not stated) has LC retention time strictly less than 5 min T

Others:
Check if LC retention time falls below 5 min for CC(=O)SCC(Cc1ccccc1)C(=O)NCC(=O)OCc1ccccc1 (configuration not stated) . T

Below 5 min on LC retention time? Entry CC(=O)NO [Acetohydroxamic acid] T

Below 5 min on LC retention time? Entry CC(CCC(=O)NCCS(=O)(=O)O)C1CCC2C3C(O)CC4CC(O)CCC4(C)C3CC(O)C12C (configuration not stated) F
